Taken from ChEMBL document CHEMBL5150037.

Biological target: Poly [ADP-ribose] polymerase 1 (Homo sapiens, UniProt P09874)
Sequence (P09874 whole entry): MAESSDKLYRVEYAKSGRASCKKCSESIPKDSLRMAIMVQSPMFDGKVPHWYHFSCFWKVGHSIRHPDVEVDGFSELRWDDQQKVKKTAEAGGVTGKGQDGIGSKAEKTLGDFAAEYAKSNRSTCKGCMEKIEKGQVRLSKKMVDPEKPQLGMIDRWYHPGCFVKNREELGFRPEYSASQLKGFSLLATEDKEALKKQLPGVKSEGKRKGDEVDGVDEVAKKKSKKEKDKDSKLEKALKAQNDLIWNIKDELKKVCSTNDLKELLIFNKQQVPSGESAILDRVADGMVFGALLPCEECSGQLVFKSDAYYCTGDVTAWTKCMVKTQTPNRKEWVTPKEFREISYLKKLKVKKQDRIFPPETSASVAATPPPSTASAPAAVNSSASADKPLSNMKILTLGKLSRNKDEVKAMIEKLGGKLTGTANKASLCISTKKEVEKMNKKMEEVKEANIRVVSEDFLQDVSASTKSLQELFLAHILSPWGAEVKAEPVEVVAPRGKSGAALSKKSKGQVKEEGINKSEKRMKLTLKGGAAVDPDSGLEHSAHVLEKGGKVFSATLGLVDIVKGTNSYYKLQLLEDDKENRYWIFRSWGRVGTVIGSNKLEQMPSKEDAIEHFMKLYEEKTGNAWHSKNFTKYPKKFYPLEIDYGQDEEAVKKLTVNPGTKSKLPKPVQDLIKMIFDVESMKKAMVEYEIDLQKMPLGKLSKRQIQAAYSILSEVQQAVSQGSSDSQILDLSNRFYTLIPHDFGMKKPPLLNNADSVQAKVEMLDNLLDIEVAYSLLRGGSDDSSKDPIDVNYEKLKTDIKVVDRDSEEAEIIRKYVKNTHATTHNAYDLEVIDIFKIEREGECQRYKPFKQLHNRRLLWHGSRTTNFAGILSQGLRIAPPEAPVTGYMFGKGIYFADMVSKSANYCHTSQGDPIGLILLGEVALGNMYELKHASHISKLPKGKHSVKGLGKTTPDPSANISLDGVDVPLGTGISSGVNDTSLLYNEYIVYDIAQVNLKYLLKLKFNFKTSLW
Experiment: Inhibition of PARP-1 (unknown origin)
pIC50: −log10 of the molar value.
endpoint: pIC50

Field: example entries. Status: answers known.
compound	pIC50
CCc1cc2ncc(CN3CC[C@H](Nc4ccc(C(=O)NC)nc4)C3)cc2[nH]c1=O	7.48
CCc1cc2ncc(CN3CCN(c4cc5cccc(C(=O)NC)c5cn4)CC3)cc2[nH]c1=O	7.85
CCc1cc2ncc(CN3CC4(CCN(c5ccc(C(=O)NC)nc5)CC4)C3)cc2[nH]c1=O	7.92
CCc1cc2ncc(CN3CCc4nc(C(=O)NC)ccc4C3)cc2[nH]c1=O	6.46

(1) CCc1cc2ncc(CN3CCN(c4ccc(C(=O)NC)c5nccn45)CC3)cc2[nH]c1=O
(2) CCc1cc2ncc(CN3CCN(c4ccc5cc[nH]c5n4)CC3)cc2[nH]c1=O
So which one has the bigger pIC50 here, 1 or 2 ? Indicate which entry you chose by stating its label.
1

(I) CCc1cc2ncc(CN3CCN(c4ccc5[nH]ncc5n4)CC3)cc2[nH]c1=O
(II) CCc1cc2ncc(CN3CCN(c4cc5c(cn4)NC(=O)CC5)CC3)cc2[nH]c1=O
(III) CCc1cc2ncc(CN3CC4CN(c5ccc(C(=O)NC)nc5)CC4C3)cc2[nH]c1=O (stereo not given)
(IV) CCc1cc2ncc(CN3CCN(c4ccc5oc(=O)[nH]c5c4)CC3)cc2[nH]c1=O
(V) CCc1cc2ncc(CN3CCC(Nc4ccc(C(=O)NC)nc4)CC3)cc2[nH]c1=O
Hey, can you sort those compounds up there by pIC50, smallest first? Labels, requested order.
II, V, IV, I, III
(II: 8.27, V: 8.47, IV: 8.70, I: 9.11, III: 9.47)

(I) CCc1cc2ncc(CN3C[C@@H]4C[C@H]3CN4c3ccc(C(=O)NC)nc3)cc2[nH]c1=O
(II) CCc1cc2ncc(CN3CCN(c4ccc(C(C)(C)O)nc4)CC3)cc2[nH]c1=O
Which value of pIC50 is smaller, the one for I or the one for II ? Indicate which entry you chose by stating its label.
II

(a) CCc1cc2ncc(CN3CCN(c4ccc5nc(C(F)(F)F)[nH]c5n4)CC3)cc2[nH]c1=O
(b) CCc1cc2ncc(CN3CCc4cc(/C=C/C(=O)NC)ccc4C3)cc2[nH]c1=O
(c) CCc1cc2ncc(CN3CCC(Nc4ccc(C(=O)NC)nc4)C3)cc2[nH]c1=O (stereo not given)
(d) CCc1cc2ncc(CN3CCn4c(cnc4C(=O)NC)C3)cc2[nH]c1=O
Order the records by pIC50, with each subsequent value no larger than the one before. Labels, requested order.
b, c, a, d

(P) CCc1cc2ncc(CN3CCN(c4ccc5cn[nH]c5n4)CC3)cc2[nH]c1=O
(Q) CCc1cc2ncc(CN3CCN(c4cnc5cn[nH]c5c4)CC3)cc2[nH]c1=O
So which one has the bigger pIC50 here, P or Q ? Indicate which entry you chose by stating its label.
P

(I) CCc1cc2ncc(CN3CC[C@@H](Nc4ccc(C(=O)NC)nc4)C3)cc2[nH]c1=O
(II) CCc1cc2ncc(CN3CC(Nc4ccc(C(=O)NC)nc4)C3)cc2[nH]c1=O
So which one has the bigger pIC50 here, I or II ? Indicate which entry you chose by stating its label.
I
(I: 9.31, II: 8.59)

(A) CCc1cc2ncc(CN3CC4(C3)CN(c3ccc(C(=O)NC)nc3)C4)cc2[nH]c1=O
(B) CCc1cc2ncc(CN3CCN(c4ccc(OC(F)F)nc4)CC3)cc2[nH]c1=O
So which one has the bigger pIC50 here, A or B ? Indicate which entry you chose by stating its label.
A
(A: 9.23, B: 9.00)
